Listed molecules paired with reported IC50
biological target: Neuronal acetylcholine receptor; alpha4/beta2 (Homo sapiens, UniProt P17787+P43681); test: Antagonist activity at human nAChR alpha4/beta2 receptor expressed in HEK ts201 cells assessed as calcium accumulation by fluorescence analysis; assay type: functional, cell-based; conditions: read-out: IC50
Sequence (P17787 whole entry): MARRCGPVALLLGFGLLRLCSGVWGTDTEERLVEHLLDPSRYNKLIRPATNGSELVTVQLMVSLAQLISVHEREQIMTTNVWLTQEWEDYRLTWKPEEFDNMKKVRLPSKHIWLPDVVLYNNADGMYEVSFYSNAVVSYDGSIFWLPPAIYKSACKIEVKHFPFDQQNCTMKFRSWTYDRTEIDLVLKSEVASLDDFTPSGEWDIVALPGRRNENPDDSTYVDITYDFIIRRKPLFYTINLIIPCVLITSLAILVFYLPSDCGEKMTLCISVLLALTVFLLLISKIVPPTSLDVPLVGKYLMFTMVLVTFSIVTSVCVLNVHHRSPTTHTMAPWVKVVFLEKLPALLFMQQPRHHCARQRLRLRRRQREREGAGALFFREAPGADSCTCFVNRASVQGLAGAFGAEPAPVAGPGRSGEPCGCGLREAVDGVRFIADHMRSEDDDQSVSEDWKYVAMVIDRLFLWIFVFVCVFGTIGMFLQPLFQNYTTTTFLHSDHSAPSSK
Sequence (P43681 whole entry): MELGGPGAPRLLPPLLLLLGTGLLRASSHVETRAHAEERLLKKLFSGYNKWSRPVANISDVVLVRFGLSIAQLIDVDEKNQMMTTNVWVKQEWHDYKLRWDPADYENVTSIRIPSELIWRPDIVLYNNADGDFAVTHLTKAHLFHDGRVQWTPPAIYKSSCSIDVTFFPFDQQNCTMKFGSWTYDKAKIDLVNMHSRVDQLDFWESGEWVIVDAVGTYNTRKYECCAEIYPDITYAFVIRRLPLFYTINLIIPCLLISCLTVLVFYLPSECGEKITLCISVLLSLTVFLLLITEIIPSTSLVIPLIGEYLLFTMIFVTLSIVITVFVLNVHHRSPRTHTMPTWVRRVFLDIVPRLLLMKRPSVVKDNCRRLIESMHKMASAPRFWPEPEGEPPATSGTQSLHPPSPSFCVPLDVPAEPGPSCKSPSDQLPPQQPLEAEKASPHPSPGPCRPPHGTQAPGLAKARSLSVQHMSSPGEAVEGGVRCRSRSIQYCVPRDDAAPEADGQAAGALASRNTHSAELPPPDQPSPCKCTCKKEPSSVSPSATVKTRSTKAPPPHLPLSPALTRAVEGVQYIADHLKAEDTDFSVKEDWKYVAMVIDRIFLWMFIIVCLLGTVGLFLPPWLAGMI
Provide only the numeric value, understood in µM.

MOLECULE: O=C(OCC1CCCN(CCCc2ccccc2)C1)c1ccccc1-c1ccccc1 (centres undefined)
IC50 [µM]: 13.5

Lab note: need IC50 for O=C(OCC1CCCN(C(=O)CCc2ccccc2)C1)c1ccccc1-c1ccccc1 (centres undefined) on Neuronal acetylcholine receptor; alpha4/beta2 (Homo sapiens, UniProt P17787+P43681), anyone have it?
5.6

Lab note: need IC50 for O=C(OCC1CCCN(CCCc2ccccc2)C1)c1ccccc1C(F)(F)F (single isomer, unassigned) on Neuronal acetylcholine receptor; alpha4/beta2 (Homo sapiens, UniProt P17787+P43681), anyone have it?
8

Lab note: need IC50 for O=C(NCc1ccccc1)c1ccccc1-c1ccccc1 on Neuronal acetylcholine receptor; alpha4/beta2 (Homo sapiens, UniProt P17787+P43681), anyone have it?
7.5

Lab note: need IC50 for O=C(Nc1ccccn1)c1ccccc1-c1ccccc1 on Neuronal acetylcholine receptor; alpha4/beta2 (Homo sapiens, UniProt P17787+P43681), anyone have it?
13.6

Lab note: need IC50 for O=C(OC1CCCN(CCCc2ccccc2)C1)c1ccccc1-c1ccccc1 (single isomer, unassigned) on Neuronal acetylcholine receptor; alpha4/beta2 (Homo sapiens, UniProt P17787+P43681), anyone have it?
6.5

Lab note: need IC50 for O=C(OCC1CCN(CCCc2ccccc2)CC1)c1ccccc1-c1ccccc1 on Neuronal acetylcholine receptor; alpha4/beta2 (Homo sapiens, UniProt P17787+P43681), anyone have it?
8.1

Lab note: need IC50 for O=C(Nc1ccccc1)c1ccccc1-c1ccccc1 on Neuronal acetylcholine receptor; alpha4/beta2 (Homo sapiens, UniProt P17787+P43681), anyone have it?
6.9

Lab note: need IC50 for O=C(Nc1cccc2ccccc12)c1ccccc1-c1ccccc1 on Neuronal acetylcholine receptor; alpha4/beta2 (Homo sapiens, UniProt P17787+P43681), anyone have it?
10.7

Lab note: need IC50 for O=C(OC1CCCN(C(=O)CCc2ccccc2)C1)c1ccccc1-c1ccccc1 (centres undefined) on Neuronal acetylcholine receptor; alpha4/beta2 (Homo sapiens, UniProt P17787+P43681), anyone have it?
4.3

Lab note: need IC50 for O=C(NCc1cccc2ccccc12)c1ccccc1-c1ccccc1 on Neuronal acetylcholine receptor; alpha4/beta2 (Homo sapiens, UniProt P17787+P43681), anyone have it?
13.9

Lab note: need IC50 for O=C(OCC1CCCN(C(=O)CCc2ccccc2)C1)c1ccccc1C(F)(F)F (centres undefined) on Neuronal acetylcholine receptor; alpha4/beta2 (Homo sapiens, UniProt P17787+P43681), anyone have it?
3.9

Lab note: need IC50 for O=C(OCC1CCN(C(=O)CCc2ccccc2)CC1)c1ccccc1-c1ccccc1 on Neuronal acetylcholine receptor; alpha4/beta2 (Homo sapiens, UniProt P17787+P43681), anyone have it?
5.9

Lab note: need IC50 for O=C(Nc1ccncn1)c1ccccc1-c1ccccc1 on Neuronal acetylcholine receptor; alpha4/beta2 (Homo sapiens, UniProt P17787+P43681), anyone have it?
25.1
